Origin of measurements: the supplement of paper PMC11061612

- Test system: VCaP (Prostate Carcinoma)
- Measurement Description: combination Emax (second highest fraction inhibited in the dose matrix, 72 h); higher = more inhibition; extreme values may be limits of the assay
combination Emax overview

{"Compound": "CC1(C)CCC(CN2CCN(c3ccc(C(=O)NS(=O)(=O)c4ccc(NCC5CCOCC5)c([N+](=O)[O-])c4)c(Oc4cnc5[nH]ccc5c4)c3)CC2)=C(c2ccc(Cl)cc2)C1 [Venetoclax] + CCN(CCO)CCCOc1ccc2c(Nc3cc(CC(=O)Nc4cccc(F)c4)[nH]n3)ncnc2c1 [AZD2811] (first compound max 1 µM, 7x7, partner max 1 µM)", "combination Emax": 0.226}
{"Compound": "CS(=O)(=O)CCNCc1ccc(-c2ccc3ncnc(Nc4ccc(OCc5cccc(F)c5)c(Cl)c4)c3c2)o1 [Lapatinib] + Cn1cnc2c(F)c(Nc3ccc(Br)cc3Cl)c(C(=O)NOCCO)cc21 [Selumetinib] (first compound max 10 µM, 7x7, partner max 10 µM)", "combination Emax": 0.182}
{"Compound": "Cc1c2c(nn1C)CSCc1cc(n(C)n1)CSc1cc(c3ccccc3c1)OCCCc1c(C(=O)O)n(C)c3c-2c(Cl)ccc13 [AZD5991] + C=CCn1c(=O)c2cnc(Nc3ccc(N4CCN(C)CC4)cc3)nc2n1-c1cccc(C(C)(C)O)n1 [AZD1775] (first compound max 1 µM, partner max 1 µM)", "combination Emax": 0.916}
{"Compound": "Cc1c2c(nn1C)CSCc1cc(n(C)n1)CSc1cc(c3ccccc3c1)OCCCc1c(C(=O)O)n(C)c3c-2c(Cl)ccc13 [AZD5991] + CC(=O)O[C@H]1C(=O)[C@@]2(C)[C@H]([C@H](OC(=O)c3ccccc3)[C@]3(O)C[C@H](OC(=O)[C@H](O)[C@@H](NC(=O)c4ccccc4)c4ccccc4)C(C)=C1C3(C)C)[C@]1(OC(C)=O)CO[C@@H]1C[C@@H]2O [Paclitaxel] (first compound max 1 µM, 7x7, partner max 3 µM)", "combination Emax": 0.977}
{"Compound": "Cc1c2c(nn1C)CSCc1cc(n(C)n1)CSc1cc(c3ccccc3c1)OCCCc1c(C(=O)O)n(C)c3c-2c(Cl)ccc13 [AZD5991] + Cn1cnc2c(F)c(Nc3ccc(Br)cc3Cl)c(C(=O)NOCCO)cc21 [Selumetinib] (first compound max 1 µM, 7x7, partner max 3 µM)", "combination Emax": 0.911}
{"Compound": "C[C@@H](Nc1cc(F)cc(F)c1)c1cc(C(=O)N(C)C)cc2c(=O)cc(N3CCOCC3)oc12 [AZD8186] + C1CN(CCC1(C(=O)N[C@@H](CCO)C2=CC=C(C=C2)Cl)N)C3=NC=NC4=C3C=CN4 [AZD5363] (first compound max 10 µM, 7x7, partner max 10 µM)", "combination Emax": 0.443}
{"Compound": "Cc1nc(-c2cn3c(n2)-c2ccc(-c4cnn(C(C)(C)C(N)=O)c4)cc2OCC3)n(C(C)C)n1 [Taselisib] + O=C(Nc1ccc2[nH]nc(-c3ccncc3)c2c1)[C@@H]1CCN(CC(=O)N2CCN(c3ccc(-c4ncccn4)cc3)CC2)C1 [SCH772984] (first compound max 10 µM, 7x7, partner max 5 µM)", "combination Emax": 0.587}
{"Compound": "O=C(c1cc(Cc2n[nH]c(=O)c3ccccc23)ccc1F)N1CCN(C(=O)C2CC2)CC1 [Olaparib] + CC1(C)CCC(CN2CCN(c3ccc(C(=O)NS(=O)(=O)c4ccc(NCC5CCOCC5)c([N+](=O)[O-])c4)c(Oc4cnc5[nH]ccc5c4)c3)CC2)=C(c2ccc(Cl)cc2)C1 [Venetoclax] (first compound max 10 µM, 7x7, partner max 1 µM)", "combination Emax": 0.101}
{"Compound": "O=C(c1cc(Cc2n[nH]c(=O)c3ccccc23)ccc1F)N1CCN(C(=O)C2CC2)CC1 [Olaparib] + Cc1c2c(nn1C)CSCc1cc(n(C)n1)CSc1cc(c3ccccc3c1)OCCCc1c(C(=O)O)n(C)c3c-2c(Cl)ccc13 [AZD5991] (first compound max 10 µM, 7x7, partner max 1 µM)", "combination Emax": 0.958}
{"Compound": "CC1(C)CCC(CN2CCN(c3ccc(C(=O)NS(=O)(=O)c4ccc(NCC5CCOCC5)c([N+](=O)[O-])c4)c(Oc4cnc5[nH]ccc5c4)c3)CC2)=C(c2ccc(Cl)cc2)C1 [Venetoclax] + C1CN(CCC1(C(=O)N[C@@H](CCO)C2=CC=C(C=C2)Cl)N)C3=NC=NC4=C3C=CN4 [Capivasertib] (first compound max 1 µM, 7x7, partner max 3 µM)", "combination Emax": 0.398}
{"Compound": "C=CCn1c(=O)c2cnc(Nc3ccc(N4CCN(C)CC4)cc3)nc2n1-c1cccc(C(C)(C)O)n1 [AZD1775] + C[C@@H]1COCCN1C2=NC(=NC(=C2)C3(CC3)[S@](=N)(=O)C)C4=C5C=CNC5=NC=C4 [AZD6738] (first compound max 1 µM, partner max 10 µM)", "combination Emax": 0.602}
{"Compound": "C[C@@H]1COCCN1c1cc(C2([S@](C)(=N)=O)CC2)nc(-c2ccnc3[nH]ccc23)n1 [AZD6738] + C1CC(C1)(C(=O)[O-])C(=O)[O-].N.N.[Pt+2] [Carboplatin] (first compound max 10 µM, 7x7, partner max 10 µM)", "combination Emax": 0.48}
